Tested on: Haemophilus influenzae 1218
protocol_summary: MIC, microtiter broth dilution (NCCLS M100-S14), H. influenzae 1218 (susceptible)
Format: cell-based
experimental_setup: Haemophilus influenzae 1218
measured_metric: MIC H. influenzae 1218 (mg/L)
Provide the reading as a plain figure in mg/L.

{"columns": ["compound", "target_system", "measured_metric", "result_number"],
 "data": [
  ["CCC1OC(=O)C(C)C(=O)C(C)C(OC2OC(C)CC(N(C)C)C2O)C(C)(OC)CC(C)C(=O)C(C)C2N(C3CN(S(=O)(=O)c4cccc5cnccc45)C3)C(=O)OC12C (stereo not shown) [Example 3.04]", "Haemophilus influenzae 1218", "MIC H. influenzae 1218", 0.25],
  ["CCC1OC(=O)C(C)C(=O)C(C)C(OC2OC(C)CC(N(C)C)C2O)C(C)(OC)CC(C)C(=O)C(C)C2N(C3CN(C(=O)c4ccc(-c5noc(C)n5)cc4)C3)C(=O)OC12C (stereo not shown) [Example 2.12]", "Haemophilus influenzae 1218", "MIC H. influenzae 1218", 32],
  ["CCC1OC(=O)C(C)C(=O)C(C)C(OC2OC(C)CC(N(C)C)C2O)C(C)(OC)CC(C)C(=O)C(C)C2N(C3CN(S(=O)(=O)c4ccc(N5CCOCC5)c(F)c4)C3)C(=O)OC12C (stereo not shown) [Example 3.46, 3-fluoro-4-morpholinobenzenesulfonyl]", "Haemophilus influenzae 1218", "MIC H. influenzae 1218", 2],
  ["CC[C@H]1OC(=O)[C@H](C)C(=O)[C@H](C)[C@@H](O[C@@H]2O[C@H](C)C[C@H](N(C)C)[C@H]2O)[C@](C)(OC)C[C@@H](C)C(=O)[C@H](C)[C@H]2N(CC3(C)CN(Cc4ccc5ncccc5c4)C3)C(=O)O[C@]12C [6.01]", "Haemophilus influenzae 1218", "MIC H. influenzae 1218", 1],
  ["CCC1OC(=O)C(C)C(=O)C(C)C(OC2OC(C)CC(N(C)C)C2O)C(C)(OC)CC(C)C(=O)C(C)C2N(C3CN(Cc4c(OC)cnc5ncccc45)C3)C(=O)OC12C (stereo not shown) [Example 1.72]", "Haemophilus influenzae 1218", "MIC H. influenzae 1218", 1],
  ["CCC1OC(=O)C(C)C(=O)C(C)C(OC2OC(C)CC(N(C)C)C2O)C(C)(OC)CC(C)C(=O)C(C)C2N(C3CN(C(=O)c4ccc(-n5cccn5)nc4)C3)C(=O)OC12C (stereo not shown) [Example 2.20]", "Haemophilus influenzae 1218", "MIC H. influenzae 1218", 16]
]}

Reported MIC H. influenzae 1218 (Haemophilus influenzae 1218) for entry CCC1OC(=O)C(C)C(=O)C(C)C(OC2OC(C)CC(N(C)C)C2O)C(C)(OC)CC(C)C(=O)C(C)C2N(CC3CN(Cc4cnc5ncccn45)C3)C(=O)OC12C (stereo not shown) [4.26] is 0.25

Reported MIC H. influenzae 1218 (Haemophilus influenzae 1218) for entry CCC1OC(=O)C(C)C(=O)C(C)C(OC2OC(C)CC(N(C)C)C2O)C(C)(OC)CC(C)C(=O)C(C)C2N(CC3CN(C(=O)c4cccc5ncccc45)C3)C(=O)OC12C (stereo not shown) [4.32] is 1

Reported MIC H. influenzae 1218 (Haemophilus influenzae 1218) for entry CCC1OC(=O)C(C)C(=O)C(C)C(OC2OC(C)CC(N(C)C)C2O)C(C)(OC)CC(C)C(=O)C(C)C2N(C3CN(Cc4ccnc(-c5nc(C)no5)c4)C3)C(=O)OC12C (stereo not shown) [Example 1.46] is 8
